Test system: SW-620 colon
Test: NCI tumour cell line growth inhibition, 48 h
The following molecules are listed with their measured TGI values.

Below: 6 molecules and their reported TGI.
COc1ccc(Nc2ccnc(N3CCN(c4ccnc5cc(Cl)ccc45)CC3)n2)cc1 :: > 73.1 µM
O=Nc1c(-c2c(O)[nH]c3ncccc23)[nH]c2ccccc12 :: > 100 µM
O=C1OC(=O)c2c1c(-c1ccccc1)nc1ccccc21 :: > 100 µM
CN=C(Nc1cccc(C(F)(F)F)c1)SCc1ccc(N=C=S)cc1 :: 41 µM
Cc1cc(C)c(C2CNCc3cc4c(cc32)CNCC4c2c(C)cc(C)cc2C)c(C)c1 (centres undefined) :: 11.5 µg/mL
COc1cc(C(=O)Nc2cc(O)c(CC=C(C)C)c(O)c2)cc2c1O[C@]1(C)CC[C@@H](O)C(C)(C)[C@H]1C2 :: 11.9 µM

Quick one: TGI for COc1ccc(-c2cc(=O)c3c(O)cccc3o2)c(OC)c1OC ?
> 100 µM

Now consider CC1=NN(c2ccccc2)C(=O)/C1=C\c1ccc([N+](=O)[O-])cc1 and answer again.
93.2 µM

Also, Nc1nc2c(C(=O)O)c3ccc([N+](=O)[O-])cc3c(=O)n2c2ccccc12 please.
> 100 µM

What would you report for COc1cc(O)c2c(=O)c(OC)c(-c3ccc(OC)c(OC)c3)oc2c1 ?
> 100 µM

Try this molecule next: Nc1nc(N)c(CCCCc2ccccc2)c(N)n1
> 100 µM
